Data provenance is patent US20090253709A1.

tested on: MCF7; assay: In vitro cytotoxicity, Development Therapeutics Program; type: cell-based; details: MCF7, breast cancer; 1.0×10^−5 M
Given measured Cellular growth rate (%), output 1.0 if it is greater than or equal to 80% and 0.0 if not.

1) CN(C)CC(=O)Nc1ccc2c(c1)C(=O)c1cc(NC(=O)CN(C)C)ccc1C2=O : 0.0
2) O=C(CCN1CCCC1)Nc1ccc2c(c1)C(=O)c1cc(NC(=O)CCN3CCCC3)ccc1C2=O : 0.0
3) CC(=O)Nc1ccc2c(c1)C(=O)c1cc(NC(C)=O)ccc1C2=O : 1.0
4) O=C1c2ccc(NC(=O)C3CC3)cc2C(=O)c2cc(NC(=O)C3CC3)ccc21 : 0.0

Here is the next item to consider.
Hi, just wondering whether `CCN(CC)CCC(=O)Nc1ccc2c(c1)C(=O)c1cc(NC(=O)CCN(CC)CC)ccc1C2=O` shows Cellular growth rate (%) of 80% or higher.
0.0

###

assay: MTT assay in BJ1 cells; type: cell-based; details: human, hTERT-BJ1-PTERT(3.4)-SEAP cells; BJ1; compound concentration 10 μM; read-out: MTT (Inhibition μM ± SD)
hey, just use t if measured viability at 48 h, 10 µM is less than 90%, otherwise f

Consider the following illustrative entries.
1) O=C(CN1CCCC1)Nc1ccc2c(c1)C(=O)c1cc(NC(=O)CN3CCCC3)ccc1C2=O : t
2) O=C(CCCl)Nc1ccc2c(c1)C(=O)c1cc(NC(=O)CCCl)ccc1C2=O : t
3) CCN(CC)CC(=O)Nc1ccc2c(c1)C(=O)c1cc(NC(=O)CN(CC)CC)ccc1C2=O : t
4) O=C(CCN1CCNCC1)Nc1ccc2c(c1)C(=O)c1cc(NC(=O)CCN3CCNCC3)ccc1C2=O : f

Consider now this further compound.
Determine whether this compound shows viability at 48 h, 10 µM lower than 90% (ties excluded): `CCC(=O)Nc1ccc2c(c1)C(=O)c1cc(NC(=O)CC)ccc1C2=O`
t

###

tested on: H1299; test: MTT assay in H1299 cells; type: cell-based; conditions: 1 µM
Parameter Measured: viability (%)
Number only, in %; omit the unit.

compound O=C1c2ccc(NC(=O)C3CCCC3)cc2C(=O)c2cc(NC(=O)C3CCCC3)ccc21 [Compound 33] , viability observed: 91

###

experiment: MTT assay in BJ1 cells; assay type: cell-based; settings: human, hTERT-BJ1-PTERT(3.4)-SEAP cells; BJ1; compound concentration 100 μM; read-out: MTT (Inhibition μM ± SD)
The molecules listed here are annotated with their viability at 48 h, 100 µM.
Answer format: value, then unit.

Illustrative cases are given below, each with its answer.
1. CC(C)CNCC(=O)Nc1ccc2c(c1)C(=O)c1cc(NC(=O)CNCC(C)C)ccc1C2=O : 39%
2. CC(=O)Nc1ccc2c(c1)C(=O)c1cc(NC(C)=O)ccc1C2=O : 91%

Note: attention shifts to another entry.
The molecule listed as `O=C(CCCCl)Nc1ccc2c(c1)C(=O)c1cc(NC(=O)CCCCl)ccc1C2=O` has a reported viability at 48 h, 100 µM of 58%

###

assay: MTT assay in BJ1 cells; type: cell-based; conditions: human, hTERT-BJ1-PTERT(3.4)-SEAP cells; BJ1; compound concentration 10 μM; read-out: MTT (Inhibition μM ± SD)
Parameter Measured: viability at 48 h, 10 µM

Worked cases, answers included:
1) CCCNCCC(=O)Nc1ccc2c(c1)C(=O)c1cc(NC(=O)CCNCCC)ccc1C2=O : 65%
2) CCCCNCC(=O)Nc1ccc2c(c1)C(=O)c1cc(NC(=O)CNCCCC)ccc1C2=O : 41%
3) CN(C)CC(=O)Nc1ccc2c(c1)C(=O)c1cc(NC(=O)CN(C)C)ccc1C2=O : 45%

Reported viability at 48 h, 10 µM of `O=C(CCc1ccccc1)Nc1ccc2c(c1)C(=O)c1cc(NC(=O)CCc3ccccc3)ccc1C2=O` : 44%

Lab book: viability at 48 h, 10 µM of `CC(C)CNCC(=O)Nc1ccc2c(c1)C(=O)c1cc(NC(=O)CNCC(C)C)ccc1C2=O` noted as 37%

Per the records, this compound ( `O=C1c2ccc([N+](=O)[O-])cc2C(=O)c2cc([N+](=O)[O-])ccc21` ) has viability at 48 h, 10 µM equal to 91%

compound `CC(C)NCC(=O)Nc1ccc2c(c1)C(=O)c1cc(NC(=O)CNC(C)C)ccc1C2=O` , viability at 48 h, 10 µM observed: 41%
